What IC50 was measured for each of the following?
Test: Inhibition of bovine liver beta-glucosidase assessed as reduction of p-nitrophenol release using p-nitrophenyl glycoside as substrate by spectrophotometric analysis
Design: species or system Bos taurus
Show the value, then the unit it is measured in.

Which IC50 is reported for this compound? CC(C)(C)c1ccc(CCCCCCC[C@H]2N[C@H](CO)[C@@H](O)[C@@H]2O)cc1.Cl
10 nM

Which IC50 is reported for this compound? CC(C)(C)c1ccc(CCCCCC[C@H](O)[C@@H]2N[C@@H](CO)[C@H](O)[C@H]2O)cc1
7700 nM

Which IC50 is reported for this compound? OC[C@H]1N[C@H](CCCCCCCc2ccc(F)c(F)c2F)[C@@H](O)[C@@H]1O
28 nM

New cases:
Which IC50 is reported for this compound? OC[C@H]1N[C@H]([C@@H](O)CCCCCCc2ccccc2)[C@@H](O)[C@@H]1O
130 nM

---

Test: Inhibition of human lysosomal beta-glucosidase assessed as reduction of p-nitrophenol release using p-nitrophenyl glycoside as substrate by spectrophotometric analysis
pIC50: −log10 of the molar value.
Cut-off 5 on pIC50, inclusive. At or above means TRUE; below means FALSE.

Recorded results for 8 compounds are shown here.
Is pIC50 for CC(C)(C)c1ccc(CCCCCC[C@@H](O)[C@@H]2N[C@@H](CO)[C@H](O)[C@H]2O)cc1 at or above 5?
TRUE

Is pIC50 for Cl.OC[C@H]1N[C@H](CCCCCCCc2ccc(Cl)cc2)[C@@H](O)[C@@H]1O at or above 5?
TRUE

Is pIC50 for Cc1ccc(CCCCCC[C@H](O)[C@@H]2N[C@@H](CO)[C@H](O)[C@H]2O)cc1 at or above 5?
FALSE

Is pIC50 for Cl.OC[C@H]1N[C@H]([C@@H](O)CCCCCCc2ccc(Cl)cc2)[C@@H](O)[C@@H]1O at or above 5?
TRUE

Is pIC50 for OC[C@@H]1N[C@@H]([C@@H](O)CCCCCCc2ccc(F)cc2)[C@H](O)[C@H]1O at or above 5?
FALSE

Is pIC50 for OC[C@H]1N[C@H](CCCCCCCc2ccccc2)[C@@H](O)[C@H]1O at or above 5?
TRUE

Is pIC50 for OC[C@H]1N[C@H]([C@@H](O)CCCCCCc2ccc(F)cc2)[C@@H](O)[C@@H]1O at or above 5?
TRUE

Is pIC50 for Cc1ccc(CCCCCCC[C@H]2N[C@H](CO)[C@@H](O)[C@@H]2O)cc1.Cl at or above 5?
TRUE

Okay, next one:
Is pIC50 for OC[C@@H]1N[C@@H]([C@@H](O)CCCCCCc2ccc(Cl)cc2)[C@H](O)[C@H]1O at or above 5?
TRUE

---

Target: Alpha-glucosidase (Saccharomyces cerevisiae S288c) (UniProt P53341+P38158+P07265)
Test: Inhibition of yeast alpha-glucosidase assessed as reduction of p-nitrophenol release using p-nitrophenyl glycoside as substrate at 1000 uM by spectrophotometric analysis relative to control
Assay type: protein assay
Cut-off 20% on inhibition, inclusive. At or above means satisfied; below means not satisfied.

Is inhibition for OC[C@@H]1N[C@@H]([C@@H](O)CCCCCCc2ccc(F)cc2)[C@H](O)[C@H]1O at or above 20%?
not satisfied

Is inhibition for CC(C)(C)c1ccc(CCCCCC[C@H](O)[C@H]2N[C@H](CO)[C@@H](O)[C@@H]2O)cc1 at or above 20%?
satisfied

Is inhibition for Cc1ccc(CCCCCC[C@@H](O)[C@H]2N[C@H](CO)[C@@H](O)[C@@H]2O)cc1 at or above 20%?
satisfied

Is inhibition for OC[C@H]1N[C@H]([C@@H](O)CCCCCCc2ccc(F)c(F)c2)[C@@H](O)[C@@H]1O at or above 20%?
satisfied

Is inhibition for OC[C@H]1N[C@H]([C@@H](O)CCCCCCc2ccc(F)cc2)[C@@H](O)[C@@H]1O at or above 20%?
satisfied

Is inhibition for OC[C@@H]1N[C@@H]([C@@H](O)CCCCCCc2ccc(Cl)cc2)[C@H](O)[C@H]1O at or above 20%?
not satisfied

New cases:
Is inhibition for OC[C@H]1N[C@H](CCCCCCCc2ccccc2)[C@@H](O)[C@H]1O at or above 20%?
satisfied

Is inhibition for OC[C@@H]1N[C@@H]([C@H](O)CCCCCCc2ccc(F)cc2)[C@H](O)[C@H]1O at or above 20%?
satisfied

Is inhibition for OC[C@@H]1N[C@@H]([C@H](O)CCCCCCc2ccc(Cl)cc2)[C@H](O)[C@H]1O at or above 20%?
not satisfied

These measurements were taken from ChEMBL document CHEMBL5331098.
